assay: A quantitative high throughput screen for small molecules that induce DNA re-replication in MCF 10a normal breast cells.; also: nearly all actives have a fitted effect of over 50% in size; conditions: MCF 10A DNA re-replication, Hoechst nuclear intensity, 48 h; series mostly up to 46.1 µM
In all, about 350,000 compounds went through this assay and about 9,900 (2.8%) were called active. About 15% were inconclusive and are not listed. Calls follow the shape of the dose curve; as a rule, active = well fitted activation curve with a large enough effect; inconclusive = small, poorly fitted or top-dose-only effect; inactive = no such curve, though single readings can be large or run the other way. This is one part of a sample in which actives are shown more often than they occur.
Hi there, use one of these labels in your reply, thanks! t for active, f for inactive

compound: Cc1ccc(NS(=O)(=O)c2ccc(N/N=C/c3ccccc3OCC(=O)O)c([N+](=O)[O-])c2)c(C)c1
assigned category: f
--
compound: Cc1noc(C)c1S(=O)(=O)N(C)C[C@H]1Oc2ccc(NC(=O)C3CC3)cc2C(=O)N([C@H](C)CO)C[C@@H]1C
assigned category: f
--
compound: N#Cc1c(-c2ccccc2)c(-c2ccccc2)n[nH]c1=O
assigned category: t

Could you check what this test reported for `O=[N+]([O-])c1ccc(O)c(/C=N/Nc2ccccc2[N+](=O)[O-])c1` ? f

---

test: A quantitative high throughput screen for small molecules that induce DNA re-replication in MCF 10a normal breast cells.; also: nearly all actives have a fitted effect of over 50% in size; conditions: MCF 10A DNA re-replication, Hoechst nuclear intensity, 48 h; series mostly up to 46.1 µM
Among all 350,000 compounds or so, about 9,900 (2.8%) were called active. Not shown: some 15% with an inconclusive outcome. Calls come from the whole dose curve; as a rule, active = well fitted activation curve with a large enough effect; inconclusive = small, poorly fitted or top-dose-only effect; inactive = no such curve, though single readings can be large or run the other way. Many of the other results were omitted from the sample, so actives are more common in it than they were.
Outcomes you can answer with include only these: active, inactive

Any idea what this test logged for `O=C(NCCCN1CCOCC1)c1ccc2c(c1)N(Cc1cccc(F)c1)C(=O)c1ccccc1S2` ? inactive

Fill in: this test's call for `COc1ccc(C2=Nn3c(nnc3-c3ccccc3OC)SC2)cc1OC1CCCC1` is ___ active

Please indicate how the test categorized `Cc1ccc(S(=O)(=O)CCC(=O)OCC(=O)N(C)Cc2ccccc2)cc1` . inactive

Any idea what this test logged for `Cc1ccc(S(=O)(=O)N2CCN(c3ncnc4ccccc34)CC2)cc1` ? inactive

Returns: the outcome recorded for `O=C(CN1C(=O)NC2(CCCCC2)C1=O)N1CCN(C(=O)c2cccs2)CC1` in this assay. inactive

Name the outcome recorded for `O=C(COc1ccccc1F)Nc1nc(-c2ccccn2)cs1` in the assay. inactive

Call for entry `COc1cc(CNCCN(C)C)ccc1OCc1c(F)cccc1Cl` : inactive

For `CCOC(=O)CCCCCC(=O)Nc1ccc2c(c1)CC(=O)N([C@@H](C)CO)C[C@H](C)[C@@H](CN(C)Cc1ccccc1)O2` , what call appears in the results of this test? inactive

Assay result, entry `CC(=O)Nc1ccc(C(=O)Nc2cc(S(=O)(=O)N3CCOCC3)ccc2N2CCOCC2)cc1` — outcome? inactive

Please let me know the test result on file for `Cc1c(O)c(C)c2c(c1O)C(=O)C[C@@H](c1ccccc1)O2` . inactive

# lookup: test call for `COc1ccccc1N1CC(O)=C(c2nc3ccccc3s2)C1=N` inactive

---

assay: A quantitative high throughput screen for small molecules that induce DNA re-replication in MCF 10a normal breast cells.; also: nearly all actives have a fitted effect of over 50% in size; conditions: MCF 10A DNA re-replication, Hoechst nuclear intensity, 48 h; series mostly up to 46.1 µM
About 9,900 (2.8%) of roughly 350,000 compounds were called active. Roughly 15% stayed inconclusive and do not appear here. Calls follow the shape of the dose curve; as a rule, active = well fitted activation curve with a large enough effect; inconclusive = small, poorly fitted or top-dose-only effect; inactive = no such curve, though single readings can be large or run the other way. The full list was thinned out, with actives kept by preference.
Please reply with one of these outcomes: Yes for active, No for inactive

Worked examples follow.
compound: COc1ccc(OC)c(CN2CCN(C(=O)CNC(=O)c3cc(C)cc(C)c3)CC2)c1
assigned category: No

compound: CC(C)n1c(-c2cccs2)nc2ccccc21
assigned category: No

compound: COc1ccc(CC(=O)N[C@@H]2c3cc(OC)c(OC)cc3C[C@H]2OCc2ccccc2)cc1
assigned category: No

compound: O=C(NNc1ccccc1Cl)C(O)(c1cccc(C(F)(F)F)c1)c1cccc(C(F)(F)F)c1
assigned category: Yes

compound: COC(=O)C1=C(C)OC(N)=C(C#N)C1c1cc(OC)ccc1OC (configuration not stated)
assigned category: No

compound: OCCCNc1nc(-c2ccccc2)c2cc(Cl)ccc2n1
assigned category: Yes

compound: Cc1ccc(NC(=O)CCNC(=O)c2ccc([N+](=O)[O-])cc2)cc1S(=O)(=O)N1CCOCC1
assigned category: No

compound: CCOC(=O)C1(Cc2cccc(OC)c2)CCN(Cc2csc(C(C)=O)c2)CC1
assigned category: Yes

compound: COc1ccc(/C=N/S(=O)(=O)c2ccccc2)cc1OC
assigned category: No

compound: COC(=O)Cc1nc2c(N)nc(N)nc2[nH]c1=O
assigned category: No

Would you mind telling me which call this test gave `CCOC(=O)c1sc(NC(=O)CSc2ncccn2)c(C#N)c1C` ? Yes

Please share the test call associated with `COc1ccccc1CSc1nc2ccccc2[nH]1` . Yes

# lookup: test call for `O=C(NCc1cccnc1)c1cccnc1Sc1ccc(Cl)cc1` No

GET /call?item= `CNS(=O)(=O)c1cccc(C(=O)OCCCC(=O)c2ccccc2)c1` returns the recorded outcome of this test. No

Name the outcome recorded for `CC[C@]1(C(=O)OC)[C@H]2C(=O)N(Cc3ccccc3)C(=O)[C@H]2[C@H]2CN=C(SCc3ccc(Cl)cc3)N21` in the assay. No

Could you kindly confirm the outcome this assay logged for `Cc1noc(C)c1NC(=O)Nc1ccc2c(c1)C(=O)N([C@H](C)CO)C[C@H](C)[C@@H](CN(C)C(=O)Nc1ccc(C(F)(F)F)cc1)O2` ? No

Check the results log: what was the call for `Cc1ccccc1NC(=O)CSC(=O)c1ccccc1` ? No

---

assay: A quantitative high throughput screen for small molecules that induce DNA re-replication in MCF 10a normal breast cells.; also: nearly all actives have a fitted effect of over 50% in size; details: MCF 10A DNA re-replication, Hoechst nuclear intensity, 48 h; series mostly up to 46.1 µM
Out of some 350,000 compounds screened, about 9,900 (2.8%) were called active. Not shown: some 15% with an inconclusive outcome. The call rests on the fitted dose curve; in most records, active means well fitted activation curve with a large enough effect; inconclusive means small, poorly fitted or top-dose-only effect; inactive means no such curve, though single readings can be large or run the other way. What follows is part of a selection rich in actives, with near analogues and random picks from the rest.
Please reply with one of these outcomes: active, inactive

Solved entries:
compound: c1ccc(-c2ccc(OCCN3CCOCC3)cc2)cc1
assigned category: inactive

compound: CSc1ccc(/C=N/NC(=O)c2cccc(Cl)c2)cc1
assigned category: inactive

compound: CCOc1ccc(C(=O)CCN2CCOCC2)cc1
assigned category: active

compound: CN(C)CCNC(=O)c1ccc(Cl)c2cc3ccccc3nc12
assigned category: inactive

compound: C[n+]1cccc(C(=O)O)c1
assigned category: inactive

compound: O=S(=O)(c1ccccc1)N(CC(O)CN1CCCCC1)c1ccccc1 (configuration not stated)
assigned category: inactive

Given `O=C(CSc1ccccc1)Nc1cc(Cl)ccc1Oc1ccccc1` , state the outcome it received in this test. inactive

Each recorded value in this set is attributed to PubChem BioAssay AID624296.
